Every entry's value here was drawn from patent US6231875A.

Experiment: pH measurement of acidifiers with a glass electrode
Format: physicochemical
Conditions: after 1 min
endpointLabel: pH reading
In your answer, state the number alone without any accompanying words.

Previously resolved entries follow.
- C[C@H](O)C(=O)O [L(+)-lactic acid]: 0.31
- O=C(O)c1ccccc1O [Salicylic acid]: 2.92

Okay, now this molecule:
Recorded pH reading of O=C(O)CO [Glycolic Acid] , please. 0.43
